test: adipocyte viability effects, profiling panel, cell-based, 3T3-L1 adipocytes, calcein-AM fluorescence, 48 h, basal (AID 1163); conditions: 3T3-L1 adipocytes viability, higher = more signal; also: test concentration not given here
Labels assigned by z-score range: bottom: < -0.3; middle: ≥ -0.3 and < 0.6; top: ≥ 0.6

The examples below pair each entry with its known result.
CCCCC(=C=CC[C@H](O)c1ccc(OCCO)cc1)C[C@H](O)c1cc(Cl)cc(Cl)c1O
middle
COc1ccc([Si](C)(C)[C@H]2[C@H](CCO)O[C@@]3(C(=O)N(Cc4ccc(N5C(=O)c6ccccc6Oc6ccccc65)cc4)c4ccccc43)[C@@H]2C)cc1
middle
COC(=O)[C@@]1(Cc2ccccc2CN=[N+]=[N-])N=C(c2ccc(OCCCO)cc2)O[C@H]1c1ccccc1
top

Task: Record C=C(COC)/C(=C/C[C@H](OC(C)=O)c1cccc(OCCO)c1)c1cnc2ccccc2c1 — which class?
Result: top

Task: Assign a bin to CCN(CC)c1ccc(N2CC=CC34O[C@@H]5/C=C\CCC(C)OC(=O)C5[C@H]3C(=O)N(C(C)CO)[C@@H]4C2=O)cc1 (stereo partly specified)
Result: bottom

Task: Which category fits this record: COc1cc(NN2C(C(O)C3CCCCC3)C=CC3C(=O)N(C)C(=O)C32)cc(OC)c1OC (stereo unspecified)
Result: middle

Task: Note: place this compound into its band. Item: C=C(CCCC)C(=O)CC[C@H](OC(C)=O)c1ccc(OCCO)cc1
Result: top

Task: Which of the defined bands does the recorded z-score of CN1C(=O)[C@@]2(Cc3ccccc3)N=C(c3ccc(OCCCO)cc3)O[C@H]2c2ccccc21 sit within?
Result: bottom

Task: Form: Item = O=C1O[C@H](c2ccccc2)[C@H](c2ccccc2)N2[C@H]1[C@@H](C(=O)N1CCCCCCC1)[C@]1(C(=O)Nc3ccc(C#CC4(O)CCCCCC4)cc31)[C@H]2c1ccc(O)cc1 ; Class = ?
Result: bottom

Task: Any idea which band O=C1c2ccccc2[C@](Cc2ccccc2I)(C(=O)NC2CC2)[C@H](c2ccc(CO)cc2)N1Cc1ccccc1C(F)(F)F is in?
Result: top

Task: Bin? COCCOC(=O)N1C(=O)[C@@]2(c3cc(C#CC4=CCCCC4)ccc31)[C@H](c1ccc(O)cc1)N1[C@H](c3ccccc3)[C@H](c3ccccc3)OC(=O)[C@H]1[C@@H]2C(=O)NC[C@H](O)c1ccccc1
Result: bottom

Task: Would you mind sorting CCOC(=O)C1=CCN(S(=O)(=O)c2ccc(C)cc2)C1c1ccccc1 (stereo unspecified) into the appropriate category?
Result: middle

Task: Please indicate the class for C=CC[C@H](OC(=O)Nc1ccc(SC)cc1)c1ccc(OCCO)cc1 based on its z-score.
Result: middle

Task: Just checking, what class would you give CCOC(=O)C1=CC[C@@H](c2ccccc2)N(S(=O)(=O)c2ccc(C)cc2)[C@H]1C=Cc1ccccc1 here?
Result: bottom

Task: Just checking, what class would you give O=C(O)[C@@H]1C[C@@H]2C(=O)N3CCC[C@H]3C(=O)N2[C@@H]1c1cccc(OCCO)c1 here?
Result: top

* * *

assay: inhibitors of hydroxyurea-induced Chk1 phosphorylation, primary screen, imaging, HeLa, phospho-Chk1 nuclear intensity (AID 1187); settings: hydroxyurea-induced phospho-Chk1 immunofluorescence imaging, higher = more signal; also: test concentration not given here
Please note: 1 applies when z-score is 0.2 or greater, and 0 applies otherwise.

Examples from the recorded data:
COCCOC(=O)N1C(=O)[C@@]2(c3cc(C#CC4(O)CCCCCC4)ccc31)[C@H](C(=O)N1CCN(c3ncccn3)CC1)[C@H]1C(=O)O[C@H](c3ccccc3)[C@H](c3ccccc3)N1[C@@H]2c1ccccc1OCCO
0
CCOC(=O)C[C@H]1[C@H](OC(=O)c2ccccc2-c2ccccc2)[C@@H](NC(=O)c2ccccc2)c2cc(OCCCO)ccc2N1C(=O)c1ccccc1
1
CN1C(=O)C2C=CC(C(O)c3ccc(F)cc3)N(NC(=O)OC(C)(C)C)C2C1=O (stereo not given)
0
COc1ccc([Si](C)(C)[C@H]2[C@H](CC(=O)N3CCC[C@H]3CO)O[C@@]3(C(=O)N(Cc4ccc(N5CCC5=O)cc4)c4ccccc43)[C@@H]2C)cc1
0

Task: Record CO[C@H]1O[C@H](CO)[C@@H](OC(=O)c2ccc(Br)cc2)[C@@H]2OC(=O)[C@H](Cc3ccccc3)C/C=C/C[C@@H](Cc3ccccc3)C(=O)O[C@@H]12 ; criterion: z-score no lower than 0.2. Met?
Result: 0

Task: Decide: is the reported value of z-score for CCCCCN1CC=CC23O[C@@H]4C=CCOC(=O)[C@@H]4[C@H]2C(=O)N(CCO)[C@@H]3C1=O (stereo not given in full) equal to or greater than 0.2?
Result: 0

Task: Confirm if z-score reported for the compound O=C1OCCC/C=C\[C@H]2OC34C=CCN(c5ccc6ccccc6c5)C(=O)[C@H]3N(CCCO)C(=O)[C@@H]4C12 (stereo not given in full) is 0.2 or above.
Result: 1

Task: Hello, I need to know if CC(C)c1ccc(NN2C(C(O)Cc3ccccc3)C=CC3C(=O)N(c4ccccc4)C(=O)C32)cc1 (stereo not given) has measured z-score not below 0.2. Thanks!
Result: 1

Task: Check this compound for z-score at or above 0.2: COC(=O)[C@@]1(Cc2ccccc2CN=[N+]=[N-])N=C(c2ccc(OCCCO)cc2)O[C@H]1c1ccccc1
Result: 1
